Item-by-item account of log10 Ki
Biological target: Adenosine receptor A1 (Rattus norvegicus)
Test: Binding affinity against adenosine A1 receptor using [3H]DPCPX in rat cortical membranes in the absence of GTP
Assay type: cell membranes
Parameter value (number): base-10 log of Ki in nM.

Example cases with answers are listed next.
CNC[C@H]1O[C@@H](n2cnc3c(NC4CCCC4)ncnc32)[C@H](O)[C@@H]1O 2.64
C[Se]C[C@H]1O[C@@H](n2cnc3c(NC4CCCC4)ncnc32)[C@H](O)[C@@H]1O 1.88
CSC[C@H]1O[C@@H](n2cnc3c(NC4CCCC4)ncnc32)[C@H](O)[C@@H]1O 1.77
CCNC[C@H]1O[C@@H](n2cnc3c(NC4CCCC4)ncnc32)[C@H](O)[C@@H]1O 3.38
O[C@@H]1[C@H](O)[C@@H](CCl)O[C@H]1n1cnc2c(NC3CCCC3)ncnc21 0.98
CC(C)CSC[C@H]1O[C@@H](n2cnc3c(NC4CCCC4)ncnc32)[C@H](O)[C@@H]1O 1.61
CCSC[C@H]1O[C@@H](n2cnc3c(NC4CCCC4)ncnc32)[C@H](O)[C@@H]1O 1.65
CCCSC[C@H]1O[C@@H](n2cnc3c(NC4CCCC4)ncnc32)[C@H](O)[C@@H]1O 1.88

Task item: Look up log10 Ki with Adenosine receptor A1 (Rattus norvegicus) for this compound: `CCCNC[C@H]1O[C@@H](n2cnc3c(NC4CCCC4)ncnc32)[C@H](O)[C@@H]1O`
Reply: 3.67

###

Target: Adenosine receptor A1 (Rattus norvegicus, UniProt P25099)
Sequence (P25099 whole entry): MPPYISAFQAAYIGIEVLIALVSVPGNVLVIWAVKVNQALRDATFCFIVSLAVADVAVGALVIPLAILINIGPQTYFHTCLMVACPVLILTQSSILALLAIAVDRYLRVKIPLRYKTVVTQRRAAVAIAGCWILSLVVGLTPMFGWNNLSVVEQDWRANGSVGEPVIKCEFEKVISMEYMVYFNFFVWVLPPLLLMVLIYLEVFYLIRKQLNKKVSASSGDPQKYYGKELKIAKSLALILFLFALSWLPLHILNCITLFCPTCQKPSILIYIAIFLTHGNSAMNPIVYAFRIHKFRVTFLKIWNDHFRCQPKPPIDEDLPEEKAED
Assay: Effective concentration for [35S]GTP-gamma-S, binding to adenosine A1 receptor in rat brain membranes
Item-by-item account of EC50
Lab book: enter the figure in nM, no units written.

Example cases with answers are listed next.
CSC[C@H]1O[C@@H](n2cnc3c(NC4CCCC4)ncnc32)[C@H](O)[C@@H]1O 99
CCCSC[C@H]1O[C@@H](n2cnc3c(NC4CCCC4)ncnc32)[C@H](O)[C@@H]1O 384
C[Se]C[C@H]1O[C@@H](n2cnc3c(NC4CCCC4)ncnc32)[C@H](O)[C@@H]1O 225
CC(C)CSC[C@H]1O[C@@H](n2cnc3c(NC4CCCC4)ncnc32)[C@H](O)[C@@H]1O 189

Below: the item to evaluate.
Task item: Recorded EC50 for `CNC[C@H]1O[C@@H](n2cnc3c(NC4CCCC4)ncnc32)[C@H](O)[C@@H]1O` , please?
Reply: 1330

src = ChEMBL document CHEMBL1131197
